biological target: BACE1 (Homo sapiens (Human)); assay: In vitro enzymatic BACE1 FRET assay; type: biochemical; details: pH 4.5, read-out: BACE1 Enzyme IC50
pIC50: −log10 of the molar value.
Each item that follows carries a reported pIC50.

- COMPOUND: "N#Cc1cnc(C#Cc2ccc(F)c([C@@]3(CF)N=C(N)S[C@@]4(CF)C[C@H]43)c2)s1"
  pIC50: 7.24
- COMPOUND: "NC1=N[C@](CF)(c2cc(C#Cc3ncc(Cl)cn3)ccc2F)[C@@H]2C[C@]2(/C=C/C(=O)N2CCOCC2)S1"
  pIC50: 7.68
- COMPOUND: "COC[C@]12CC1[C@@](C)(c1cc(C#Cc3ncc(C#N)cc3C)ccc1F)N=C(N)S2 (some centres unmarked)"
  pIC50: 7.64
- COMPOUND: "C[C@]1(c2cc(C#Cc3ccc(C#N)cn3)ccc2F)N=C(N)S[C@]2(CO)[C@H]1C2(F)F"
  pIC50: 7.33
- COMPOUND: "N#Cc1cnc(C#Cc2ccc(F)c([C@@]3(CF)N=C(N)S[C@@]4(/C=C/C(=O)N5CCOCC5)C[C@H]43)c2)c(F)c1"
  pIC50: 7.31
- COMPOUND: "Cc1cc(C#N)cnc1C#Cc1ccc(F)c([C@@]2(CF)N=C(N)S[C@@]3(CF)C[C@H]32)c1"
  pIC50: 7.42
- COMPOUND: "CN(C)C(=O)/C=C/[C@]12C[C@H]1[C@@](CF)(c1cc(C#Cc3ccc(C#N)cn3)ccc1F)N=C(N)S2"
  pIC50: 7.60
- COMPOUND: "Cc1cc(C#Cc2ccc(F)c([C@@]3(CF)N=C(N)S[C@@]4(/C=C/C(=O)N5CCOCC5)C[C@H]43)c2)sn1"
  pIC50: 8.22
- COMPOUND: "CC#CCOc1ccc(C#Cc2ccc(F)c([C@@]3(CF)N=C(N)S[C@@]4(CF)C[C@H]43)c2)nc1"
  pIC50: 7.02
- COMPOUND: "Cc1cc(C#N)cnc1C#Cc1ccc(F)c([C@@]2(C)N=C(N)S[C@@]3(C(=O)N(C)C)C[C@H]32)c1"
  pIC50: 8.52
- COMPOUND: "NC1=N[C@](CF)(c2cc(C#Cc3ccc(OCc4ncco4)cn3)ccc2F)[C@@H]2C[C@]2(CF)S1"
  pIC50: 6.13
- COMPOUND: "N#CC[C@]12C[C@H]1[C@@](CF)(c1cc(C#Cc3ccc(C#N)cn3)ccc1F)N=C(N)S2"
  pIC50: 7.08
- COMPOUND: "Cc1cc(OCc2ncco2)cnc1C#Cc1ccc(F)c([C@@]2(C)N=C(N)S[C@@]3(C(=O)N(C)C)C[C@H]32)c1"
  pIC50: 7.39
- COMPOUND: "N#Cc1ccc(C#Cc2ccc(F)c([C@@]3(CF)N=C(N)S[C@@]4(CO)C[C@H]43)c2)nc1"
  pIC50: 7.10

* * *

molecular target: BACE1 (Homo sapiens (Human), UniProt P56817); test: In vitro enzymatic BACE1 FRET assay; format: biochemical; conditions: pH 4.5, read-out: BACE1 Enzyme IC50
Sequence (P56817 46-501): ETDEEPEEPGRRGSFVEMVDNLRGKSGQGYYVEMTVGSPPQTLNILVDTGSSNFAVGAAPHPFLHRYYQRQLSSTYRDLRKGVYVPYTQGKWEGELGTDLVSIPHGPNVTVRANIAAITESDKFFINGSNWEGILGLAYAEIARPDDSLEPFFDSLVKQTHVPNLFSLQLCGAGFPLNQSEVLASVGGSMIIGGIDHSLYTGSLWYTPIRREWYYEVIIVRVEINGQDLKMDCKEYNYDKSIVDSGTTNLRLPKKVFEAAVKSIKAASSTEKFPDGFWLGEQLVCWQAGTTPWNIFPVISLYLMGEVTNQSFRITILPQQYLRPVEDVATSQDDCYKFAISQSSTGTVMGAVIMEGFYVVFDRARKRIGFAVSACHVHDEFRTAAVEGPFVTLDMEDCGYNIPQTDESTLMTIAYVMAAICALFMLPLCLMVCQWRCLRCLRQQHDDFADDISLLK

- COMPOUND: "Cc1cc(C#N)cnc1C#Cc1ccc(F)c([C@@]2(C)N=C(N)S[C@@]3(C(=O)N4CCCC4)C[C@H]32)c1"
  IC50 / nM: 2
- COMPOUND: "Cc1cc(C#N)cnc1C#Cc1cnc(F)c([C@@]2(C)N=C(N)S[C@@]3(C(=O)N4CCOCC4)CC32)c1 (stereo partly drawn)"
  IC50 / nM: 37
- COMPOUND: "NC1=N[C@](CF)(c2cc(C#Cc3ccc(Cl)cn3)ccc2F)[C@@H]2C[C@]2(CF)S1"
  IC50 / nM: 182
